MEASURED_TARGET: T1, CRBN, Q96SW2;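 also: pooled lentiviral library of zinc finger degron-EGFP fusions in mCherry-positive Jurkat cells, FACS-sorted after compound exposure, with degron abundance counted by next-generation sequencing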
T1 chain: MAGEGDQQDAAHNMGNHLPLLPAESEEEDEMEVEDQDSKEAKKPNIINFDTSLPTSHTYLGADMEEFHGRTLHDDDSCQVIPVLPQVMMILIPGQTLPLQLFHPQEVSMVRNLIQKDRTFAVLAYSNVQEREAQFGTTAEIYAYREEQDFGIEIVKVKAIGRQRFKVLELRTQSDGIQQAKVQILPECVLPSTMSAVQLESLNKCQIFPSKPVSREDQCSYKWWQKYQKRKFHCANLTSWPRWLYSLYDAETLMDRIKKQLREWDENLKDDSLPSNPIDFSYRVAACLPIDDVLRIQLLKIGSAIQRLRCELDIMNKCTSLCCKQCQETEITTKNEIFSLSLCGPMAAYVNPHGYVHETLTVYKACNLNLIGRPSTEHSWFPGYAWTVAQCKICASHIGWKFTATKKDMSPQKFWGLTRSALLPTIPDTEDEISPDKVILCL
MEASUREMENT_PROTOCOL: log2 fold change of degron read counts, EGFP-low vs EGFP+ sorted cells (limma voom), compound-induced degradation; higher = more compound-induced degradation of the degron-EGFP fusion; degrons are variants of IKZF1/3 zinc finger 2; compound dose not given here
CONDITION_NOTES: Jurkat; 18 h; compound: compound 22 (5-morpholino-thalidomide)
Whole data set: some 8,300 sequences, median “log2 fold change of degron read counts, EGFP-low vs EGFP+ sorted cells (limma voom), compound-induced degradation” near -1.1, cut for the highest 2% near 3.2. This is one part of a sample in which the highest values are shown more often than they occur.
EXPERIMENTAL_READOUT: log2 fold change of degron read counts
Enter the number alone.

For the sequence FLCDICGAPFTQKGNLLRHIKL [46F_47L_49D_50I_52G_53A_54P_55F_67L_, Q9UKT9] , what log2 fold change of degron read counts is on record?
2.15

Do the same for FGCDICGAPFTQKGNLLRHIKL [46F_47G_49D_50I_52G_53A_54P_55F_67L_, Q9UKT9] please
-0.821

Do the same for FSCDICGAPFTQKGNLLRHIKL [46F_47S_49D_50I_52G_53A_54P_55F_67L_, Q9UKT9] please
1.62

Do the same for FFCPQCGAEFTQKGNLLRHIKL [46F_47F_49P_50Q_52G_53A_54E_55F_67L_, Q9UKT9] please
-1.02
